TARGET_DESC: FGFR1 (UniProt P11362)
Sequence (P11362 whole entry, looked up): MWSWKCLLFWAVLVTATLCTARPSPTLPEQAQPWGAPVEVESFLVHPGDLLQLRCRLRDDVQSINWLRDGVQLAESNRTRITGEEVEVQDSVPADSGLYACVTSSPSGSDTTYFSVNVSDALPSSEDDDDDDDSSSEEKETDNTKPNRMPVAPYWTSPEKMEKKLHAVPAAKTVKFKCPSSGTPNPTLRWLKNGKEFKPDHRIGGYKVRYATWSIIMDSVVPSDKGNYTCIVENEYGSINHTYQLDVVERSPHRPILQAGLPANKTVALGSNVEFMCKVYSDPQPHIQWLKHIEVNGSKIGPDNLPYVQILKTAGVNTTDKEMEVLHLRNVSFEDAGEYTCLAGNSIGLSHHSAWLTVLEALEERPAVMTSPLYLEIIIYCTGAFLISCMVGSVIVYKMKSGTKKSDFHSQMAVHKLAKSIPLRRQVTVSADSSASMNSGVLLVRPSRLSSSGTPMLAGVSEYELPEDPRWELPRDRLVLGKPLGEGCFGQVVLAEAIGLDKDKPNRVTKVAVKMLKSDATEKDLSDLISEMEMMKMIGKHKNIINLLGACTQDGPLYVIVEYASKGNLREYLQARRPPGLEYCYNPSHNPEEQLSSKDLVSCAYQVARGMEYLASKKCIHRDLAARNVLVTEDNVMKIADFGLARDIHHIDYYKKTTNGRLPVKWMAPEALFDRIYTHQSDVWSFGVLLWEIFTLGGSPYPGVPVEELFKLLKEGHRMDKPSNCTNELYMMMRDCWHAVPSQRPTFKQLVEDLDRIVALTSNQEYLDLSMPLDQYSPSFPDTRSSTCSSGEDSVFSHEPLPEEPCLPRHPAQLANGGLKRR
PROTOCOL_DESCRIPTION: phosphorylation enrichment, bacterial display (enrichment ratio); higher = better substrate or ligand; peptides without Tyr show the background;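 also: 11-residue human phosphosite peptides and single-mutation variants displayed on the E. coli surface, counted by deep sequencing, each peptide's frequency after selection divided by its frequency in the unselected input library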;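 also: frequency after pTyr selection over input frequency; kinase dosed for 20-30% of maximal phosphorylation in three min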
Binary classification by phosphorylation enrichment, with 0.4 as an inclusive lower bound for 1; all other cases are -1.

Qu. Reported phosphorylation enrichment at or above 0.4? IQRSLYDRPAS [PDGFRA_Y762]
Ans. 1

Qu. Please indicate if the recorded phosphorylation enrichment for KPGLVYNKVNP [SPRED3_Y72] meets or exceeds 0.4.
Ans. -1

Qu. Does the sequence GVYSRYFTTYD [CLCA1_Y661] have recorded phosphorylation enrichment that is 0.4 or more?
Ans. 1

Qu. Kindly determine if phosphorylation enrichment recorded for ELPQTYCVSGP [DYSF_Y1684_G1679E] is above or exactly 0.4.
Ans. 1

Qu. # check: phosphorylation enrichment of PIYEGYALPHA [ACTA1_Y171] is greater than or equal to 0.4
Ans. 1

# input for lookup
Qu. Hello, I need to know if SRDPFYEMLTA [CYTH1_Y382_A386T] has measured phosphorylation enrichment not below 0.4. Thanks!
Ans. 1
